PROTOCOL_TEXT: S. cerevisiae growth inhibition in restrictive medium, OD615, pilot screen, restrictive growth control, yeast lifespan reduction project (AID 706);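 note: modified DeaD lifespan yeast strain shifted to restrictive glucose medium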
EXPERIMENTAL_PARAMETERS: OD615, 48 h, at 10 µM, hits give high values

{"columns": ["MOLECULE", "MEASURE_UNIT", "growth inhibition"],
 "data": [
  ["CCN(CC)c1ccc2cc(-c3nc4ccccc4[nH]3)c(=O)oc2c1", "%", -16.3],
  ["Cc1ccc(CN2CCNC(=O)C2CC(=O)O)cc1 (stereo unspecified)", "%", -8.03],
  ["O=C(O)CC(NC(=O)c1ccccc1NC(=O)c1ccccc1)C(=O)O (stereo unspecified)", "%", -3.04],
  ["CC(=O)n1cc(-c2ccncc2)c2ccccc21", "%", -1.47],
  ["Cc1cccc(N2CCN(C(=O)Cn3nc(Cc4ccncc4)c4ccccc4c3=O)CC2)c1C", "%", 6.96],
  ["CC(C)CNc1oc(-c2ccc(F)cc2)nc1C#N", "%", -11.5]
]}

Data origin, for the record: PubChem BioAssay
